Hello, the source for this data is ChEMBL document CHEMBL1909046, in case you need it.

PROTOCOL DESCRIPTION: DRUGMATRIX: Sigma2 radioligand binding (ligand: [3H] Ifenprodil)
Format: cell membranes, Rattus norvegicus, Wistar, Brain, Membrane
CONDITION LABEL: Not Active = under 50% inhibition at 10 µM
OUTCOME MEASURE: Ki

1. CN1C(=O)CN=C(c2ccccc2)c2cc(Cl)ccc21 | Not Active
2. Nn1nnc2ccccc21 | Not Active
3. CNS(=O)(=O)Cc1ccc2[nH]cc(CCN(C)C)c2c1 | Not Active
4. C=C1/C(=C\C=C2/CCC[C@]3(C)[C@@H]([C@H](C)CCCC(C)C)CC[C@@H]23)C[C@@H](O)C[C@@H]1O | Not Active
5. Nc1ccc(S(=O)(=O)Nc2nccs2)cc1 | Not Active
